target: Tyrosyl-tRNA synthetase, putative (Trypanosoma cruzi (strain CL Brener)); assay: Trypanosoma cruzi tyrosyl tRNA synthetase (TcYRS) _High Tyrosine SOP; format: functional; parameters: scale not given: in the data most compounds retested in dose-response had high values; settings: 30 µM
parameter_measured: Percent Effect (%)

- compound: "Cc1cccc(CN2C[C@@H]3COC[C@]3(CNC(=O)N3CCCC3)C2)n1"
  parameter_measured: "Percent Effect"
  quantity_unit: "%"
  observed: 3.68
- compound: "CC(C)NC(=O)C(c1ccccc1)N1CCn2c(nnc2C2CC2)C1 (stereo unspecified)"
  parameter_measured: "Percent Effect"
  quantity_unit: "%"
  observed: 3.35
- compound: "CCc1ncc2c(n1)CN(CC(=O)Nc1nnc(C)s1)CC2"
  parameter_measured: "Percent Effect"
  quantity_unit: "%"
  observed: 6.84
- compound: "Cc1noc(C)c1CN1CCN(Cc2nccn2C)CC1"
  parameter_measured: "Percent Effect"
  quantity_unit: "%"
  observed: 6.84
- compound: "CC(C)CN1CCC2(CCN(Cc3ccoc3)CC2)C1=O"
  parameter_measured: "Percent Effect"
  quantity_unit: "%"
  observed: 10.6
- compound: "COC(=O)CC(c1ccccc1)c1oc(C)cc(=O)c1O (stereo unspecified)"
  parameter_measured: "Percent Effect"
  quantity_unit: "%"
  observed: 1.6

---

The compounds listed here are annotated with their Percent Effect.
target: Arginase-2, mitochondrial (Homo sapiens); assay: in vitro enzyme assay to detect the production of urea directly proportional to the activity of Arginase II; assay type: functional; parameters: scale not given: in the data most compounds retested in dose-response had high values; conditions: 33.3 µM

- compound: "Cn1ccnc1CN1CCCC1c1noc(C2CC2)n1 (configuration not stated)"
  Percent Effect (%): 1.33
- compound: "CN(C)CC(=O)N1C[C@H]2CCC[C@@]2(COc2ccccn2)C1"
  Percent Effect (%): -4.86
- compound: "COCC1CN(Cc2ccc(OC)cc2)Cc2nn(C)cc21 (configuration not stated)"
  Percent Effect (%): 12.2
- compound: "Cc1noc(C2CCN(C(=O)c3ccc(N(C)C)nc3)CC2)n1"
  Percent Effect (%): 1.23
- compound: "O=C(C1CC1)N1CC[C@H](O)[C@@H]1Cc1ccccc1"
  Percent Effect (%): 1.37
- compound: "COc1ncccc1CNC(=O)c1cccc(C)n1"
  Percent Effect (%): -5.74
- compound: "c1ccc(OC2CCCC2)c(CNC2CCc3ncnn3C2)c1 (configuration not stated)"
  Percent Effect (%): 2.87
- compound: "Cc1cc(NC(=O)N(CC2CCOC2)C2CC2)no1 (configuration not stated)"
  Percent Effect (%): 2.22
- compound: "CNC(=O)COc1ccccc1CNC1CCc2ncnn2C1 (configuration not stated)"
  Percent Effect (%): -1.23
- compound: "O=C(NCCc1coc(-c2ccc(F)cc2)n1)NC1CCC(O)CC1 (configuration not stated)"
  Percent Effect (%): -0.887
- compound: "CN1CCC(c2ncc3c(n2)CCN(C(=O)CC2C=CCC2)C3)CC1 (configuration not stated)"
  Percent Effect (%): 3.1
- compound: "CCc1sc(-c2nnc(CNCCn3cc(C)cn3)o2)cc1C"
  Percent Effect (%): 4.71

---

The compounds listed here are annotated with their Percent Effect.
target: AMP-activated protein kinase, AMPK (Homo sapiens) (UniProt P54646+O43741+P54619+Q9UGJ0+Q9Y478+Q13131+Q9UGI9); test: AMP-dependent Kinase enzyme assay. An in vitro enzyme assay that detects ADP turnover that is directly proportional to AMPK activity. This uses naive AMPK that is activated during the assay with MK-8722; type: functional; set-up: scale not given: direction of the effect not stated beside the values; conditions: 30 µM
parameter_measured: Percent Effect (%)

- compound: "CC(C)[C@@H]1CN(C(=O)CN(C)Cc2ccc(F)cc2)C[C@H]1C(=O)O"
  parameter_measured: "Percent Effect"
  quantity_unit: "%"
  observed: 0.85
- compound: "CC(C)Cc1noc(CC2CCS(=O)(=O)C2)n1 (configuration not stated)"
  parameter_measured: "Percent Effect"
  quantity_unit: "%"
  observed: -13.3
- compound: "COc1cccc(Cn2ncnc2CCC(C)N2CCN(C)CC2)c1 (configuration not stated)"
  parameter_measured: "Percent Effect"
  quantity_unit: "%"
  observed: -1.98
- compound: "CCN(C(=O)CN1CCCC1c1c(C)nn(C)c1OC)C1CC1 (configuration not stated)"
  parameter_measured: "Percent Effect"
  quantity_unit: "%"
  observed: 3.98
- compound: "Cn1ncc2c1CCCC2NCc1cccnc1 (configuration not stated)"
  parameter_measured: "Percent Effect"
  quantity_unit: "%"
  observed: 5.94
- compound: "NC(=O)c1cc(C2CCCN(CCc3ccc4c(c3)CCO4)C2)n[nH]1 (configuration not stated)"
  parameter_measured: "Percent Effect"
  quantity_unit: "%"
  observed: 3.33
- compound: "CCc1nn(C)c(Cl)c1CN1CCCC2(C1)CN(C)C(=O)O2 (configuration not stated)"
  parameter_measured: "Percent Effect"
  quantity_unit: "%"
  observed: 5.15
- compound: "CCc1ncc(CN2CCOC(Cc3cccc(F)c3)C2)cn1 (configuration not stated)"
  parameter_measured: "Percent Effect"
  quantity_unit: "%"
  observed: 6.71
- compound: "CC(C)(C)C(=O)NCCc1cc(N2CCOCC2)nc(NC2CC2)n1"
  parameter_measured: "Percent Effect"
  quantity_unit: "%"
  observed: 17.4
- compound: "CNc1ccc(C)cc1C(=O)N1CCCC2(CCNC2)C1 (configuration not stated)"
  parameter_measured: "Percent Effect"
  quantity_unit: "%"
  observed: 10.4
- compound: "COc1cccc2c1CCCCN2C(=O)c1oc(C)nc1C"
  parameter_measured: "Percent Effect"
  quantity_unit: "%"
  observed: 5.74
- compound: "Cc1nc(COC(=O)c2cccnc2C)no1"
  parameter_measured: "Percent Effect"
  quantity_unit: "%"
  observed: 3.04

---

target: Tyrosyl-tRNA synthetase, putative (Trypanosoma cruzi (strain CL Brener)) (UniProt Q4DSP6); assay: Trypanosoma cruzi tyrosyl tRNA synthetase (TcYRS) SOP; format: functional; design: scale not given: direction of the effect not stated beside the values; details: 30 µM
Sequence (Q4DSP6 as listed by the source): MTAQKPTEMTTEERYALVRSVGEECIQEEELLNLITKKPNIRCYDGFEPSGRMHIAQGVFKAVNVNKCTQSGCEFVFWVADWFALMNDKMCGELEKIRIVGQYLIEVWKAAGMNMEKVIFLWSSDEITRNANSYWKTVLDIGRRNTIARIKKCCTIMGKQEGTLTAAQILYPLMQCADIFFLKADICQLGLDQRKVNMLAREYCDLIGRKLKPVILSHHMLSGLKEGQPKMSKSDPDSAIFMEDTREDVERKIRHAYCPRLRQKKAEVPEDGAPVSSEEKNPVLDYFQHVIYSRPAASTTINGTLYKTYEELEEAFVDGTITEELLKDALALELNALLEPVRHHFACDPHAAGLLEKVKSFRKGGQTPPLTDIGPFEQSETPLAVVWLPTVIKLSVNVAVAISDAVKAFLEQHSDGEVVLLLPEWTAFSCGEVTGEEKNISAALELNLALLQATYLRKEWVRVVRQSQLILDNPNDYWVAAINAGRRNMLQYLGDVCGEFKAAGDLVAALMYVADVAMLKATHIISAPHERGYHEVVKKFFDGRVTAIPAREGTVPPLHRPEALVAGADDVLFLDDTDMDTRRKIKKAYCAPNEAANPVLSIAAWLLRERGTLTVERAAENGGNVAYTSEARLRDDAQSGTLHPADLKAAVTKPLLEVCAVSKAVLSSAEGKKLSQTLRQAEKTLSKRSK
The compounds listed here are annotated with their Percent Effect.
parameter_measured: Percent Effect (%)

- compound: "CCc1nc(C2CCCN2C(=O)c2nc(C)n3ccccc23)no1 (stereo unspecified)"
  parameter_measured: "Percent Effect"
  quantity_unit: "%"
  observed: 5.13
- compound: "Cc1nc(C(=O)N2CCC(Cc3cnc4[nH]ccc4c3)C2)co1 (stereo unspecified)"
  parameter_measured: "Percent Effect"
  quantity_unit: "%"
  observed: -2.5
- compound: "Cn1cc(CN2CCC3(CC2)CC(c2ccncc2)C(=O)N3)cn1 (stereo unspecified)"
  parameter_measured: "Percent Effect"
  quantity_unit: "%"
  observed: 10.3
- compound: "COCCN1CCN(Cc2cccc(OCC(N)=O)c2)CC1C (stereo unspecified)"
  parameter_measured: "Percent Effect"
  quantity_unit: "%"
  observed: 0
- compound: "CN1CC(c2ccccc2)CC2(CCN(CC(=O)N(C)C)CC2)C1 (stereo unspecified)"
  parameter_measured: "Percent Effect"
  quantity_unit: "%"
  observed: 17.1
- compound: "Cc1cc2c(=O)n3c(nc2s1)CCN(Cc1cnc(C(C)C)nc1)CC3"
  parameter_measured: "Percent Effect"
  quantity_unit: "%"
  observed: 5

---

tested on: Trypanosoma cruzi; assay: Trypanosoma cruzi phosphomannomutase and mannose-1-phosphate guanylyltransferase assay; format: functional; parameters: scale not given: direction of the effect not stated beside the values; settings: 10 µM
The compounds listed here are annotated with their Percent Effect.
parameter_measured: Percent Effect (%)

- compound: "CC(C)c1nc(C2CCCN2Cc2ccn(C)c(=O)c2)no1 (stereo not drawn)"
  observed: -0.845
- compound: "CCN(CC)C(=O)C(c1ccccc1)N1CCn2c(C)nnc2C1 (stereo not drawn)"
  observed: 7.61
- compound: "O=C1COC2(CCN(C(=O)c3ccco3)CC2)CN1Cc1ccccn1"
  observed: 0
- compound: "CN(C)C(=O)CCC(=O)NCc1cccnc1-n1cnc2ccccc21"
  observed: -1.46
- compound: "O=C(CCOc1ccc(Cl)cc1)N1CCN(c2cnccn2)CC1"
  observed: -0.746
- compound: "CCn1ccnc1CN(C)CC1CCCN1c1cccnn1 (stereo not drawn)"
  observed: 0
- compound: "Cc1noc(C)c1CN1CCN(Cc2nccn2C)CC1"
  observed: -1.81
- compound: "c1ccc(-n2ccc(CN3CCCC3Cn3cccn3)n2)cc1 (stereo not drawn)"
  observed: -5.97
- compound: "O=C(CC1CC1)N1C[C@@H]2CCN(c3cnccn3)C[C@@H]2C1"
  observed: 1.69
- compound: "N#Cc1cccc(N2CC3(CCN(C(=O)c4cccnc4)C3)CC2=O)c1 (stereo not drawn)"
  observed: -4.58
- compound: "CC(C)CN(Cc1nc2c(cnn2C)c(=O)[nH]1)C(C)C"
  observed: 5.92
- compound: "CCCNC(=O)c1cc2c(c3ccccc3n2C)n1C(=O)N(C)C"
  observed: -5.16
- compound: "Cc1cc(CN(C)C(=O)c2ccc(C(F)(F)F)nc2)no1"
  observed: -3.61
- compound: "CN1CCN(CCO)C(=O)C12CCN(Cc1ccsc1)CC2"
  observed: -1.88
- compound: "Cc1ccc(-c2nc(CN3CCCC(Cn4cncn4)C3)no2)cc1 (stereo not drawn)"
  observed: -0.373
- compound: "COc1cc(C)nc(N2CCN(C(=O)CN(C)C3CC3)CC2)n1"
  observed: -3.1
- compound: "CN(C)S(=O)(=O)N1CCCC(c2cccc(Cc3ccccc3)n2)C1 (stereo not drawn)"
  observed: -6.31
- compound: "COc1ccc(CN2CCC3(CC2)CCN(CC(C)C)C3=O)cc1"
  observed: -0.75
- compound: "O=C(NCCCNc1ccccc1)c1scnc1Cl"
  observed: -3.61
- compound: "O=C(c1ccc(OCC2CC2)nc1)N1CCCC(n2cncn2)C1 (stereo not drawn)"
  observed: -3.1
- compound: "CN(Cc1ccccc1)CC(O)Cn1cnc2c(cnn2C)c1=O (stereo not drawn)"
  observed: 4.79
- compound: "COCc1c(C(=O)NC2CCCC2)nnn1-c1ccc(C)cc1"
  observed: -2.37
- compound: "COc1ncccc1CNC(=O)c1cccnc1O"
  observed: 5.35
- compound: "CC(C)C(=O)N1CCC2(CCCN(CCOc3ccccc3)C2)C1 (stereo not drawn)"
  observed: -3
- compound: "Cc1noc(C2CCN(C(=O)c3ccc(NC4CC4)nc3)CC2)n1"
  observed: 4.6
- compound: "CCC(=O)N1CCC(O)(c2ncc(OC)nc2OC)CC1"
  observed: -3.55
- compound: "COc1ccc(C(=O)NCCCn2ccnc2)c(OC)n1"
  observed: 3.75
- compound: "CC1(C)OCC(CNC(=O)c2cnn(-c3cc(Cl)ccc3Cl)c2N)O1 (stereo not drawn)"
  observed: -1.97
- compound: "O=c1c2ccccc2nc2n1C(CSc1ccc(Cl)cc1Cl)CN2 (stereo not drawn)"
  observed: -1.31
- compound: "Cc1nc(CN(C)C2CCN(CCCOc3ccccc3)C2)no1 (stereo not drawn)"
  observed: 2.42
- compound: "COc1ccc(CN2CCC[C@@H]3CN(C(=O)c4ccco4)C[C@@H]32)cc1"
  observed: -3.6
- compound: "CC(=O)N1N=C(c2ccccc2)OC1C(=O)NCCc1cccc(Cl)c1 (stereo not drawn)"
  observed: -2.56
- compound: "Cc1ccc(NC2CCN(C(=O)c3n[nH]c4ccccc34)CC2)nn1"
  observed: -5.62
- compound: "CC(C)(C)C(O)CN1CCN(C(=O)c2cccc3[nH]ncc23)CC1 (stereo not drawn)"
  observed: 4.41
- compound: "CNc1ccc(CC2CCCN(C(=O)c3cncnc3C)C2)nn1 (stereo not drawn)"
  observed: -6.31
- compound: "COc1cc(CNCc2ccc(NC(=O)NC(C)C)cc2)cc(OC)c1"
  observed: 6.9
- compound: "CCC1CN(C(=O)c2ccccc2N2CCCC2)CCN1C(C)C (stereo not drawn)"
  observed: -4.75
- compound: "CCOc1ncccc1C(=O)N1CCCC(c2nccn2CCOC)C1 (stereo not drawn)"
  observed: -1.26
- compound: "O=C(Cn1cc(-c2ccccc2)ncc1=O)Nc1ccncc1"
  observed: -0.097
- compound: "CCS(=O)(=O)CCN1CCC(N(C)Cc2noc(C(C)C)n2)C1 (stereo not drawn)"
  observed: -1.87
- compound: "O=C1CC(c2ccco2)c2sc(C(=O)O)c(-c3ccccc3)c2N1 (stereo not drawn)"
  observed: 2.23
- compound: "Cc1cnn(CC2CCCN2CC(=O)Nc2cc(C(C)(C)C)no2)c1 (stereo not drawn)"
  observed: 3.73
- compound: "COC1CCCN(Cc2nc(Cc3ccccc3F)no2)C1 (stereo not drawn)"
  observed: 2.04
- compound: "O=c1[nH][nH]cc1-c1ccnc(NCCN2CCCC2)n1"
  observed: -4.82
- compound: "CC(C)N1CCCC2(CCN(C(=O)CCCn3cncn3)C2)C1=O (stereo not drawn)"
  observed: 7.27
- compound: "Cc1cc2c(=O)n3c(nc2s1)CCN(Cc1cnc(C(C)C)nc1)CC3"
  observed: -7.69
- compound: "O=C1COC2(CCN(C(=O)c3ccco3)CC2)CN1Cc1cccnc1"
  observed: -2.25
- compound: "Cc1cc(OCC(=O)N2CCCC(c3noc(C)n3)C2)no1 (stereo not drawn)"
  observed: -4.62
